System: RFX393 (renal)
assay: MTT antiproliferative assay, RFX393
Type: cell-based
reportedConditions: MTT, 48 h; read-out: Antiproliferative Activity GI50, Renal RFX393
Would you mind telling me the reported log10 of GI50 of each entry?
Recorded GI50 (log10, nM)

Record CSCC[C@H]1NC(=O)CC(O)/C=C/CCSSC[C@H](C(=O)O)NC1=O (some centres unmarked) , field log10 of GI50: 2.30

Record CCCC[C@H](NC(=O)CC(O)/C=C/CCS)C(=O)OC (some centres unmarked) , field log10 of GI50: 4.60

Record CCCC[C@H]1NC(=O)C[C@H]2/C=C/CCSSC[C@@H](NC1=O)C(=O)N[C@H](C(C)CC)[C@@H](O)CC(=O)O2 (some centres unmarked) [TDP-B, Thailandepsin B, reference compound] , field log10 of GI50: 0.34

Record COC(=O)[C@H]1CSSCC/C=C/C(O)CC(=O)N[C@H](CCSC)C(=O)N1 (some centres unmarked) , field log10 of GI50: 2.48

Record CCC(C)[C@H]1NC(=O)[C@H]2CSSCC/C=C/[C@H](CC(=O)N[C@H](CCSC)C(=O)N2)OC(=O)C[C@@H]1OC(C)=O (some centres unmarked) , field log10 of GI50: 2.03

Record CCC(C)C(NC(=O)CC(O)/C=C/CCS)C(=O)OC (centres unmarked) , field log10 of GI50: 4.51

Record CCC(C)C(NC(=O)CC(O)/C=C/CCS)C(=O)O (centres unmarked) , field log10 of GI50: 3.61

Record CCC(C)[C@H]1NC(=O)[C@H]2CSSCC/C=C/[C@H](CC(=O)N[C@H](CCSC)C(=O)N2)OC(=O)C[C@@H]1OCCC=O (some centres unmarked) , field log10 of GI50: 1.71
